Reported Percentage of F2 in the reaction product values for the following molecules.
Test system: ginsenoside glycosidase I
Test details: Hydrolysis of ginsenosides with Fraction 36 (ginsenoside glycosidase I)
Type: biochemical, Aspergillus niger
Test parameters: Fraction 36; substrates Rb1, Rb2, Rc, Rd 0.5%; Rg3, F2, Rh2, C—K, Rg2 0.05%; pH 5.0, 30° C.
Answer with a number only, understood to be in %.

Molecule	Percentage of F2 in the reaction product [%]
CC(C)=CCC[C@](C)(O[C@@H]1O[C@H](CO)[C@@H](O)[C@H](O)[C@H]1O)[C@H]1CC[C@]2(C)[C@@H]1[C@H](O)C[C@@H]1[C@@]3(C)CC[C@H](O[C@@H]4O[C@H](CO)[C@@H](O)[C@H](O)[C@H]4O)C(C)(C)[C@@H]3CC[C@]12C [F2, ginsenoside F2]	30

Please look at the following molecule next.
QUERY: Request the reported Percentage of F2 in the reaction product associated with CC(C)=CCC[C@](C)(O[C@@H]1O[C@H](CO[C@@H]2OC[C@H](O)[C@H](O)[C@H]2O)[C@@H](O)[C@H](O)[C@H]1O)[C@H]1CC[C@]2(C)[C@@H]1[C@H](O)C[C@@H]1[C@@]3(C)CC[C@H](O[C@@H]4O[C@H](CO)[C@@H](O)[C@H](O)[C@H]4O[C@@H]4O[C@H](CO)[C@@H](O)[C@H](O)[C@H]4O)C(C)(C)[C@@H]3CC[C@]12C [Rb2, ginsenoside Rb2]
RESULT: 35

###

Reported Percentage of aglycone in the reaction product values for the following molecules.
Test system: ginsenoside glycosidase I
Test details: Hydrolysis of ginsenosides with Fraction 36 (ginsenoside glycosidase I)
Format: biochemical, Aspergillus niger
Test parameters: Fraction 36; substrates Rb1, Rb2, Rc, Rd 0.5%; Rg3, F2, Rh2, C—K, Rg2 0.05%; pH 5.0, 30° C.
Answer with a number only, understood to be in %.

Take a look at these entries with their results.
Molecule	Data value
CC(C)=CCC[C@](C)(O[C@@H]1O[C@H](CO[C@@H]2O[C@@H](CO)[C@H](O)[C@H]2O)[C@@H](O)[C@H](O)[C@H]1O)[C@H]1CC[C@]2(C)[C@@H]1[C@H](O)C[C@@H]1[C@@]3(C)CC[C@H](O[C@@H]4O[C@H](CO)[C@@H](O)[C@H](O)[C@H]4O[C@@H]4O[C@H](CO)[C@@H](O)[C@H](O)[C@H]4O)C(C)(C)[C@@H]3CC[C@]12C [Rc, ginsenoside Rc]	2
CC(C)=CCC[C@](C)(O)[C@H]1CC[C@]2(C)[C@@H]1[C@H](O)C[C@@H]1[C@@]3(C)CC[C@H](O[C@@H]4O[C@H](CO)[C@@H](O)[C@H](O)[C@H]4O[C@@H]4O[C@H](CO)[C@@H](O)[C@H](O)[C@H]4O)C(C)(C)[C@@H]3CC[C@]12C [Rg3, ginsenoside Rg3]	3
CC(C)=CCC[C@](C)(O[C@@H]1O[C@H](CO)[C@@H](O)[C@H](O)[C@H]1O)[C@H]1CC[C@]2(C)[C@@H]1[C@H](O)C[C@@H]1[C@@]3(C)CC[C@H](O[C@@H]4O[C@H](CO)[C@@H](O)[C@H](O)[C@H]4O[C@@H]4O[C@H](CO)[C@@H](O)[C@H](O)[C@H]4O)C(C)(C)[C@@H]3CC[C@]12C [Rd, ginsenoside Rd]	5
CC(C)=CCC[C@](C)(O)[C@H]1CC[C@]2(C)[C@@H]1[C@H](O)C[C@@H]1[C@@]3(C)CC[C@H](O[C@@H]4O[C@H](CO)[C@@H](O)[C@H](O)[C@H]4O)C(C)(C)[C@@H]3CC[C@]12C [Rh2, ginsenoside Rh2]	10
CC(C)=CCC[C@](C)(O[C@@H]1O[C@H](CO[C@@H]2OC[C@H](O)[C@H](O)[C@H]2O)[C@@H](O)[C@H](O)[C@H]1O)[C@H]1CC[C@]2(C)[C@@H]1[C@H](O)C[C@@H]1[C@@]3(C)CC[C@H](O[C@@H]4O[C@H](CO)[C@@H](O)[C@H](O)[C@H]4O[C@@H]4O[C@H](CO)[C@@H](O)[C@H](O)[C@H]4O)C(C)(C)[C@@H]3CC[C@]12C [Rb2, ginsenoside Rb2]	1
CC(C)=CCC[C@](C)(O[C@@H]1O[C@H](CO[C@@H]2O[C@H](CO)[C@@H](O)[C@H](O)[C@H]2O)[C@@H](O)[C@H](O)[C@H]1O)[C@H]1CC[C@]2(C)[C@@H]1[C@H](O)C[C@@H]1[C@@]3(C)CC[C@H](O[C@@H]4O[C@H](CO)[C@@H](O)[C@H](O)[C@H]4O[C@@H]4O[C@H](CO)[C@@H](O)[C@H](O)[C@H]4O)C(C)(C)[C@@H]3CC[C@]12C [Rb1, ginsenoside Rb1]	2
CC(C)=CCC[C@](C)(O[C@@H]1O[C@H](CO)[C@@H](O)[C@H](O)[C@H]1O)[C@H]1CC[C@]2(C)[C@@H]1[C@H](O)C[C@@H]1[C@@]3(C)CC[C@H](O[C@@H]4O[C@H](CO)[C@@H](O)[C@H](O)[C@H]4O)C(C)(C)[C@@H]3CC[C@]12C [F2, ginsenoside F2]	5

Please look at the following molecule next.
QUERY: What value of Percentage of aglycone in the reaction product on ginsenoside glycosidase I does CC(C)=CCC[C@](C)(O[C@@H]1O[C@H](CO)[C@@H](O)[C@H](O)[C@H]1O)[C@H]1CC[C@]2(C)[C@@H]1[C@H](O)C[C@@H]1[C@@]3(C)CC[C@H](O)C(C)(C)[C@@H]3CC[C@]12C [C—K, ginsenoside C-K] have?
RESULT: 3
